system: CNS SF-268; test: Cancer cell growth inhibition, CNS SF-268; type: cell-based, human; conditions: Homo sapiens; Table 5; CNS SF-268; read-out: Cancer Cell Line Results ED50
assay_metric: IC50 (µg/mL)
Just the number please, in µg/mL, no unit attached.

Req: Entry under review: COc1cc2c3c(cc[n+](Cc4ccccc4)c3c1OC)N(Cc1ccccc1)C=C2.[Cl-] [Compound 10a] . Reported IC50?
Resp: 0.064

Req: Then COc1cc2c3c(cc[n+](C)c3c1OC)N(C)C=C2.[I-] ?
Resp: 0.69

Req: Then COc1ccc(CN2C=Cc3cc(OC)c(OC)c4nccc2c34)cc1.Cl ?
Resp: 8.2

Req: Then COc1ccc(CN2C=Cc3cc(OC)c(OC)c4c3c2cc[n+]4Cc2ccc(OC)cc2)cc1.[Br-] [Compound 10b] ?
Resp: 0.27
